test system: glycogen synthase kinase-3 (GSK3A per assay name; protocol says GSK3B); assay: GSK3 binders on small-molecule microarrays, primary screen, biochemical, small-molecule microarray, 635 nm fluorescence, GSK3A (AID 1103); settings: small-molecule microarray binding, fluorescence 635 nm; higher = more signal; note: the record names both GSK3A and GSK3B
Think of 0.2 as a floor: if composite z-score stands on it or above, it is Y; beneath it, N.

[[record]]
molecule = "O=C1[C@H]2[C@H]3[C@H](O)[C@H](O)CC(=NO[C@@H]4O[C@H](CO)[C@@H](O)[C@H](O)[C@H]4O)[C@@H]3CC[C@H]2C(=O)N1Cc1ccc2c(c1)OCO2"
assaytarget = "glycogen synthase kinase-3 (GSK3A per assay name; protocol says GSK3B)"
classification = "Y"

[[record]]
molecule = "CC(C)C[C@@H]1NC(=O)[C@H]2C[C@@H](C(=O)NCCCCCCN(C)C)[C@@H](c3cccc(OCCO)c3)N2C1=O"
assaytarget = "glycogen synthase kinase-3 (GSK3A per assay name; protocol says GSK3B)"
classification = "Y"

[[record]]
molecule = "COC(=O)C1(C)C=C2C(=C(c3ccccc3)C(=O)C2C)CN1 (configuration not stated)"
assaytarget = "glycogen synthase kinase-3 (GSK3A per assay name; protocol says GSK3B)"
classification = "N"

[[record]]
molecule = "CN(C)CCCNC(=O)[C@@H]1c2ccccc2C(=O)N(Cc2ccccc2)[C@H]1c1ccc(CO)cc1"
assaytarget = "glycogen synthase kinase-3 (GSK3A per assay name; protocol says GSK3B)"
classification = "N"

[[record]]
molecule = "CCOC(=O)[C@H](CC(C)C)NC(=O)CCC1CC(OC(=O)NCCc2ccc(F)cc2)CC2(CCCC(COC(=O)NCc3ccccc3)O2)O1 (some centres not stated)"
assaytarget = "glycogen synthase kinase-3 (GSK3A per assay name; protocol says GSK3B)"
classification = "Y"

[[record]]
molecule = "CO[C@H]1COC(=O)[C@H](C)NC(=O)[C@@H](C)COC(=O)CC=C[C@@H]1C"
assaytarget = "glycogen synthase kinase-3 (GSK3A per assay name; protocol says GSK3B)"
classification = "Y"

[[record]]
molecule = "O=C1[C@H]2[C@H]3[C@H](O)[C@H](O)CC(=NOCc4ccccc4)[C@H]3CC[C@H]2C(=O)N1c1ccc(F)cc1F"
assaytarget = "glycogen synthase kinase-3 (GSK3A per assay name; protocol says GSK3B)"
classification = "N"

